# test target: T1, human oxytocin receptor (hOTR) (human, UniProt P30559 1-389)
# T1 construct: oxytocin receptor, human; in membrane preparations or on cells; constructs are in the Supporting Information; source: HEK293, stably expressing; membrane preparations (radioligand assay); free-floating cells (FACS)
# T1 sequence (looked up): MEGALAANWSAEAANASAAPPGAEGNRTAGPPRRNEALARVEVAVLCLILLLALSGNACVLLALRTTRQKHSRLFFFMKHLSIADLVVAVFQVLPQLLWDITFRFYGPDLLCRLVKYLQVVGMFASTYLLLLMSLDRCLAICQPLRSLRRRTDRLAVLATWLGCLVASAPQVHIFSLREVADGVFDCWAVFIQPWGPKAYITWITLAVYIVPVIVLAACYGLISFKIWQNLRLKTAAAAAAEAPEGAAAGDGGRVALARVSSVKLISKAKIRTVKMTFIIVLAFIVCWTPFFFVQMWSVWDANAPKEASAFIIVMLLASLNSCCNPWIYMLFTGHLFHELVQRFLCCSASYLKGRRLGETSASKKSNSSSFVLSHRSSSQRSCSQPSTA
# assay: radioligand binding; displacement of [3H]-OT or [3H]-VP from membrane preparations of HEK293 cells stably expressing the human receptor; dose-response curves in duplicates, at least three independent experiments; Ki >10 µM assigned where <25% of the radioligand was displaced at 10 µM
# condition set: one partner purified
Positions of bridges follow the written chain, without caps; N, C: chain ends. Non-standard residues stand in square brackets, D forms with d. Groups on a side chain read outwards from the residue. Primed or numbered codes have the meaning given here. No end group written: not given here. εdLys = D-Lys linked through its epsilon amine (k^ε); PEG5′ = PEG5 spacer, as named in the construct; Cy3s = Cy3s fluorophore, as named; Orn = NCCC[C@H](N)C(=O)O; Mpa = O=C(O)CCS
result type: pKi
Convention used: pKi is expressed as -log10 of the molar concentration.

binder: [Mpa]YIQNCP[Orn]G (disulfide 1-6; not fully specified (residue 8)) [d(Orn)^8OT‐[d‐PEG5‐k^ε‐AF488]^8]
value observed: 7.65

binder: [Mpa]YIQNCP[Orn]([PEG5′-Cy3s])G (disulfide 1-6) [d(Orn)^8OT‐[PEG5‐Cy3s]^8]
value observed: 8.82

Moving on to another binder below.
Reported pKi for [Mpa]YIQNCP[Orn]([εdLys-εdLys-Cy3s])G (disulfide 1-6) [d(Orn)^8OT‐[k^ε‐k^ε‐Cy3s]^8] : what is it?
9.10
